Data origin, for the record: patent US20140127158A1

- Test system: HCV1b replicon
- Test details: Serum shift assay
- Assay type: cell-based, Hepatitis C virus
- Experimental setup: Hepatitis C virus, 10% FBS; read-out: E50
Reported property: pEC50
Value format note: pEC50 is -log10 of concentration (mol/L); just state the number.

// O=C(N[C@@H](C(=O)N1CCC[C@H]1c1ncc(-c2ccc(-c3ccc(-c4cnc([C@@H]5CCCN5C(=O)[C@H](NC(=O)C5CC5)c5ccccc5)s4)cc3)cc2)s1)c1ccccc1)C1CC1 [DBPR110] : pEC50 value = 11.37

====

- Test details: Cytotoxicity assay (MTT)
- Assay type: cell-based
- Experimental setup: human, Huh-7.5 cells; Genotype 1b, Con1; read-out: CC50
- Experimental: (4) Cytotoxicity assay. The sensitivity of the cell lines to inhibitors was examined using a 3-(4,5-Dimethylthiazol-2-yl)-2,5-diphenyltetrazolium bromide (MTT) assay. Briefly, Huh-7.5 cells were plated at a density of 1×10^5 cells per well in 12-well plates containing 1 mL of culture medium for 4 h. […] The MTT reagent was then added to each well, and the plates were incubated for 3 h at 37° C. in a humidified 5% CO2 atmosphere before reading at a wavelength of 563 nm using an ELISA plate reader. […]
Reported property: CC50 at 72 h

// O=C(N[C@@H](C(=O)N1CCC[C@H]1c1ncc(-c2ccc(-c3ccc(-c4cnc([C@@H]5CCCN5C(=O)[C@H](NC(=O)C5CC5)c5ccccc5)s4)cc3)cc2)s1)c1ccccc1)C1CC1 [DBPR110] : CC50 at 72 h value = > 50 µM
